Cited source for all entries: PubChem BioAssay

protocol-text: A549 lung cancer cell viability effects, profiling panel, resazurin fluorescence, 24 h, PK04 Diversity Set (AID 1171); further: test concentration not given here
setup-conditions: higher = more signal, called active from +8 up or from −8 down
metric-name: z-score
Give the figure only, with no unit attached.

C[C@@H]1C=CCC(=O)OC[C@H](C)C(=O)N[C@@H](C)C(=O)OC1
0.156

Entry "COc1ccc(O[C@H]2C=C[C@@H](c3ccccc3)O[C@@H]2COC(=O)CCC(C)=NO[C@@H](C)c2cc(-c3c(C)cc(C)cc3C)no2)cc1" ; z-score = 1.8

Entry "COCCOC(=O)N1C(=O)[C@@]2(c3cc(C#CCNC(N)=O)ccc31)[C@H](c1ccccc1OCCO)N1[C@H](c3ccccc3)[C@H](c3ccccc3)OC(=O)[C@H]1[C@@H]2C(=O)N1CCN(c2ncccn2)CC1" ; z-score = -1.27

Entry "CCOC(=O)CCN1C(=O)[C@H]2[C@H]3[C@H](O)[C@H](O)CC(=NOC[C@@H](O)COCc4ccco4)[C@@H]3CC[C@H]2C1=O" ; z-score = -0.397

Entry "O=C1[C@H]2[C@H]3[C@H](O)[C@H](O)CC(=NO[C@@H]4O[C@H](CO)[C@@H](O)[C@H](O)[C@H]4O)[C@H]3CC[C@H]2C(=O)N1Cc1ccc2c(c1)OCO2" ; z-score = 0.443

Entry "CCOC(=O)NN=C1C[C@@H](O)[C@@H](O)[C@@H]2[C@@H]3C(=O)N(C[C@@H]4CCCO4)C(=O)[C@@H]3CC[C@@H]12" ; z-score = -0.175

Entry "C#C[C@@H]1Oc2ccccc2S(=O)(=O)N2CCC[C@H]12" ; z-score = -0.884

Entry "C=C(/C(=C/C[C@H](OC(=O)c1ccncc1)c1ccc(OCCO)cc1)c1cnc2ccccc2c1)C(C)C" ; z-score = 0.58

Entry "CC[C@@H](c1ccccc1)n1c(=O)n2n(c1=O)[C@H]1[C@H](O)[C@@H]3O[C@@H]3C(=NOCC=C(C)CCC=C(C)C)[C@H]1CC2" ; z-score = -0.0334

Entry "CN1C(=O)[C@@]2(CCC(=O)OC(C)(C)C)N=C(c3ccc(OCCCO)cc3)O[C@H]2c2ccccc21" ; z-score = -0.54

Entry COc1ccc(-c2ccc3c(n2)CCCN3CC(O)CN2CCCc3nc(C)c(C)cc32)cc1 (stereo unspecified) ; z-score = -0.542

Entry COC(=O)C1(C)C=C2C(=C(c3ccccc3)C(=O)C2C)CN1 (stereo unspecified) ; z-score = -0.72

Entry "CC(C)NC(=O)[C@@H]1c2ccccc2C(=O)N(CC23CC4CC(CC(C4)C2)C3)[C@H]1c1ccc(CO)cc1" ; z-score = 1.18

Entry O=C1NC(=O)C2C1C=CC(C(O)Cc1ccccc1)N2Nc1ccccn1 (stereo unspecified) ; z-score = -1.22

Entry "CC(C)=CCCC(C)=CCON=C1[C@H]2CCn3c(=O)n(Cc4cc5c(cc4Cl)OCO5)c(=O)n3[C@H]2[C@H](O)[C@@H]2O[C@H]12" ; z-score = -0.386

Entry "CC(=O)OC[C@H]1O[C@H](CCON=C[C@@H](C)[C@H](OCc2ccccc2)C(C)C)C=C[C@@H]1OC(C)=O" ; z-score = 0.0793

Entry "CC(C)=NOCc1ccc(-c2cc(-c3ccccc3)no2)cc1" ; z-score = -0.589

Entry COC(=O)[C@H](C)NC(=O)CCC1CC(OC(=O)NCCc2ccc(F)cc2)CC2(CCCC(COC(=O)NCC(c3ccccc3)c3ccccc3)O2)O1 (stereo partly specified) ; z-score = 3.22

Entry "CC(C)=CCCC(C)=CCON=C1C[C@@H](O)[C@@H](O)[C@@H]2[C@@H]3C(=O)N(C[C@@H]4CCCO4)C(=O)[C@@H]3CC[C@@H]12" ; z-score = 0.0805

Entry "COC(=O)[C@H](C)NC(=O)[C@@H](C)CO" ; z-score = -0.939

Entry "CC(=O)OC[C@H]1O[C@H](C#CCCCc2ccccc2)C=C[C@@H]1OC(C)=O" ; z-score = 0.899
